- system: EGLN2
- procedureText: cell-based or functional assay
Where no end group is shown, it is not given here. [ ]: non-standard residue; d: D form. ΔPro = O=C(O)[C@@H]1C=CCN1; Aze = O=C(O)[C@@H]1CCN1
Lab note: cut-off is 10%. Strictly less in Activity (%)* is yes (1). Exactly 10% or more is no (0).

                                      binder  classification
 0  DTDLDIEAVA[Aze]YIPADDDFQ [DTDLDIEAVA8YIPADDDFQ]         yes (1)
 1  DTDLDTEAFA[Aze]YIPADDDFQ [DTDLDTEAFA8YIPADDDFQ]         yes (1)
 2  DTDLDVEAYA[Aze]YIPADDDFQ [DTDLDVEAYA8YIPADDDFQ]          no (0)
 3  DTDLDAEAIA[Aze]YIPADDDFQ [DTDLDAEAIA8YIPADDDFQ]         yes (1)
 4  DTDLDTEALA[Aze]YIPADDDFQ [DTDLDTEALA8YIPADDDFQ]         yes (1)
 5  DTDLDVEAFA[Aze]YIPADDDFQ [DTDLDVEAFA8YIPADDDFQ]          no (0)
 6  DTDLDAEAVA[Aze]YIPADDDFQ [DTDLDAEAVA8YIPADDDFQ]         yes (1)
 7  DTDLDAEATA[Aze]YIPADDDFQ [DTDLDAEATA8YIPADDDFQ]         yes (1)
 8  DTDLDVEAIA[Aze]YIPADDDFQ [DTDLDVEAIA8YIPADDDFQ]         yes (1)
 9  DTDLDLEALA[Aze]YIPADDDFQ [DTDLDLEALA8YIPADDDFQ]          no (0)
10  DTDLDLEALA[ΔPro]YIPADDDFQ [DTDLDLEALA4YIPADDDFQ]          no (0)
11  DTDLDAEAAA[Aze]YIPADDDFQ [DTDLDAEAAA8YIPADDDFQ]         yes (1)
12  DTDLDTEAYA[Aze]YIPADDDFQ [DTDLDTEAYA8YIPADDDFQ]          no (0)
13  DTDLDLEALA[b‑thioproline]YIPADDDFQ [DTDLDLEALA5YIPADDDFQ]         yes (1)
14  DTDLDLEMLAPYIPMDDDFQ [Control peptide DTD20, DTDLDLEMLApYIPMDDDFQ]          no (0)

Reference source: patent US20080113383A1
